Where do the numbers come from? From ChEMBL document CHEMBL4480397.

assayNotes: MRT (0 to infinity) in ICR mouse at 2 mg/kg, po by LC-MS-MS analysis
Assay type: ADME, organism-based
testContext: in vivo
property: MRT inf (h)
Enter your answer as a number in h; do not include the unit.

// query MRT inf value for entry COc1cc2c3c(ccc2cc1C#N)O[C@H](c1cc(F)c(F)cc1F)[C@@H](N)C3
40.7

---

assayNotes: Volume of distribution at steady state in Sprague-Dawley rat at 1 mg/kg, iv by LC-MS-MS analysis
Assay type: ADME, organism-based
testContext: in vivo, read-out: Vdss
property: Vd
Your reply should be a number followed by the unit it is expressed in.

// query Vd value for entry COc1cc2c3c(ccc2cc1C#N)O[C@H](c1cc(F)c(F)cc1F)[C@@H](N)C3
2.07 L/kg
